Tested on: Rattus norvegicus
assay_comment: Hypotensive activity in the rat as change in blood pressure (mmHg) at 4 hr after a 50 mg/kg oral dose of the compound
Type: functional
Doc: threshold -10 mmHg (exclusive). Items with BP beneath it return class 1; others return class 0.

{"structure": "CN(C)/C=N/c1ccc(Cl)c(Cl)c1.Cl", "category_label": "class 0"}
{"structure": "C/N=C\\Nc1ccc(Cl)c(Cl)c1.Cl", "category_label": "class 0"}
{"structure": "Clc1cccc(Cl)c1NC1=NCCN1", "category_label": "class 1"}
{"structure": "Cc1cccnc1/N=C/N(C)C.Cl", "category_label": "class 0"}
{"structure": "CN(C)/C=N/c1cc(Cl)ccc1Cl.Cl", "category_label": "class 0"}
{"structure": "C/N=C\\Nc1c(Cl)cccc1Cl.Cl", "category_label": "class 1"}

---

System: Rattus norvegicus
assay_comment: Hypotensive activity in the rat as change in blood pressure (mmHg) at 4 hr after a 50 mg/kg oral dose of the compound
Type: functional
test_readout: BP (mmHg)

{"structure": "CN(C)/C=N/c1c(Cl)cccc1Cl.Cl", "observed": -24}
{"structure": "C/N=C\\Nc1cc(Cl)ccc1Cl.Cl", "observed": 3}
{"structure": "Cc1cc(C)c(/N=C/N(C)C)c(C)c1.Cl", "observed": -10}
{"structure": "Cc1cccc(C)c1/N=C/N(C)C.Cl", "observed": -15}

---

Collected BP values appear next to each entry.
Test system: Rattus norvegicus
assay_comment: Hypotensive activity in the rat as change in blood pressure (mmHg) at 24 hr after of 50 mg/kg oral dose of the compound
Assay type: functional

{"structure": "C/N=C\\Nc1ccc(Cl)c(Cl)c1.Cl", "BP, mmHg": -3}
{"structure": "Cc1cccnc1/N=C/N(C)C.Cl", "BP, mmHg": 9}
{"structure": "Cc1cc(C)c(/N=C/N(C)C)c(C)c1.Cl", "BP, mmHg": 2}
{"structure": "C/N=C\\Nc1cc(Cl)ccc1Cl.Cl", "BP, mmHg": 5}
{"structure": "Cc1cccc(C)c1/N=C/N(C)C.Cl", "BP, mmHg": -21}
{"structure": "CN(C)/C=N/c1cc(Cl)ccc1Cl.Cl", "BP, mmHg": -4}
{"structure": "CN(C)/C=N/c1ccc(Cl)c(Cl)c1.Cl", "BP, mmHg": 2}
